test: Fast gradient RP-HPLC on C18 column (CHI lipophilicity); type: physicochemical; conditions: C18 column, pH 7.4
metric-name: CHIC18 pH = 7.4
I'd appreciate a reply containing only the number, no unit.

Before answering, review these 2 worked examples.
Give the reported value of CHIC18 pH = 7.4 for this record: `O=C1c2ccccc2S(=O)(=O)N1CCCCCN1CCN(c2ccc(Cl)cc2)CC1`
101.36

Give the reported value of CHIC18 pH = 7.4 for this record: `O=C1c2ccccc2S(=O)(=O)N1CCCCN1CCN(c2cccc(Cl)c2Cl)CC1`
78.80

Next:
Give the reported value of CHIC18 pH = 7.4 for this record: `COc1ccc(N2CCN(CCCCCCN3C(=O)c4ccccc4S3(=O)=O)CC2)cc1`
87.50

Give the reported value of CHIC18 pH = 7.4 for this record: `O=C1c2ccccc2S(=O)(=O)N1CCCCCCN1CCN(c2cccc(C(F)(F)F)c2)CC1`
113.75

Give the reported value of CHIC18 pH = 7.4 for this record: `COc1ccccc1N1CCN(CCCCN2C(=O)c3ccccc3S2(=O)=O)CC1`
110.90

Give the reported value of CHIC18 pH = 7.4 for this record: `O=C1c2ccccc2S(=O)(=O)N1CCCCCCN1CCN(c2ccccc2F)CC1`
97.64

Give the reported value of CHIC18 pH = 7.4 for this record: `O=C1c2ccccc2S(=O)(=O)N1CCCCCCN1CCN(c2cccc3sccc23)CC1`
101.68

Give the reported value of CHIC18 pH = 7.4 for this record: `O=C1c2ccccc2S(=O)(=O)N1CCCCN1CCN(c2ccc(Cl)cc2)CC1`
100.82

Give the reported value of CHIC18 pH = 7.4 for this record: `O=C1c2ccccc2S(=O)(=O)N1CCCCCCN1CCN(c2ccccc2)CC1`
93.84

---

assay: IAM-HPLC, immobilized artificial membrane chromatography (affinity to phospholipids); type: physicochemical; parameters: scale not given here; settings: IAM.PC.DD2 column, pH 7.4
metric-name: CHIIAM
I'd appreciate a reply containing only the number, no unit.

Give the reported value of CHIIAM for this record: COc1ccccc1N1CCN(Cc2ccc(CN3C(=O)c4ccccc4S3(=O)=O)cc2)CC1 [molecule 26]
41.48

Give the reported value of CHIIAM for this record: O=C1c2ccccc2S(=O)(=O)N1CCCCCCN1CCN(c2cccc3sccc23)CC1 [molecule 25]
45.96

Give the reported value of CHIIAM for this record: O=C1c2ccccc2S(=O)(=O)N1CCCCCN1CCN(c2ccccn2)CC1 [molecule 10]
35.73

Give the reported value of CHIIAM for this record: O=C1c2ccccc2S(=O)(=O)N1CCCCCN1CCN(c2ncccn2)CC1 [molecule 9]
34.40

Give the reported value of CHIIAM for this record: COc1ccccc1N1CCN(CCCCCN2C(=O)c3ccccc3S2(=O)=O)CC1 [molecule 6]
38.03

Now for another entry.
Give the reported value of CHIIAM for this record: O=C1c2ccccc2S(=O)(=O)N1CCCCCCN1CCN(c2ncccn2)CC1 [molecule 23]
34.77

---

Each entry below carries its reported %HSA.
Biological target: human serum albumin (HSA) (Homo sapiens)
Sequence (P02768 25-609): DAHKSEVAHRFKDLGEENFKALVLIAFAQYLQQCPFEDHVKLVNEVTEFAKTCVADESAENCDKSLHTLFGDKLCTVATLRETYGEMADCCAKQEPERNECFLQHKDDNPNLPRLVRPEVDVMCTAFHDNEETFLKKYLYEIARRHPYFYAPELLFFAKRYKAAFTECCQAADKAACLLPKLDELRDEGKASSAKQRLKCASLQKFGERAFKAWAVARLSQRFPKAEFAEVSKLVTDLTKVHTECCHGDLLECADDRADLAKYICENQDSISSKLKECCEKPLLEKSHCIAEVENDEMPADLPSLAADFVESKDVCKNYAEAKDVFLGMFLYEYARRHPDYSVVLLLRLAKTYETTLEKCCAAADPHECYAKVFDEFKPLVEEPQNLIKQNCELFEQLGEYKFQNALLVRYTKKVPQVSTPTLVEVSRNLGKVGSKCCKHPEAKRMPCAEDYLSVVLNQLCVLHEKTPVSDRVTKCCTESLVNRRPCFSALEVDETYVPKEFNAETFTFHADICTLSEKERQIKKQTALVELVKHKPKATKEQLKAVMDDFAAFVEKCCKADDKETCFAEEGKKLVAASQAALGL
Test: HSA-HPLC, biomimetic chromatography on Chiralpak HSA column
Format: in vitro ADME
Set-up: purchased Daicel Chiral Technologies, West Chester, PA, USA
Settings: pH 7.4, recalculated from logKHSA
Description: Utilizing columns modified by plasma proteins, such as human serum albumin (HSA), allows for estimating binding to plasma protein (PPB). Generally, PPB affects drug pharmacokinetics, including distribution, half-life, and clearance. While lipophilicity is a well-known factor in determining PPB, it should also be considered in early drug discovery. In general, more lipophilic compounds tend to have higher percentages of PP due to nonspecific interactions with proteins. […]
Returns: string containing the numeric result and its unit.

Give the reported value of %HSA for this record: `O=C1c2ccccc2S(=O)(=O)N1CCCCCN1CCN(c2cccc3ccccc23)CC1`
98.90%

Give the reported value of %HSA for this record: `COc1ccccc1N1CCN(CCCCCN2C(=O)c3ccccc3S2(=O)=O)CC1`
83.59%

Now for another entry.
Give the reported value of %HSA for this record: `O=C1c2ccccc2S(=O)(=O)N1CCCCCN1CCN(c2ccccc2)CC1`
88.23%
